- System: HeLa Kyoto
- assay protocol: solubility in G1/S (NP-40 vs SDS abundance) (log2 ratio); higher = more soluble
- test settings: cell cycle stage: G1/S
Kindly supply the reported solubility in G1/S (log2) values for the records listed here.
Numbers only.

Examples with their reported solubility in G1/S (log2) follow.
- MNALLEQKEQQERLREAAALGDIREVQKLVESGVDVNSQNEVNGWTCLHWACKRNHGQVVSYLLKSGADKEILTTKGEMPVQLTSRREIRKIMGVEEEDDDDDDDDNLPQLKKESELPFVPNYLANPAFPFIYTPTAEDSAQMQNGGPSTPPASPPADGSPPLLPPGEPPLLGTFPRDHTSLALVQNGDVSAPSAILRTPESTKPGPVCQPPVSQSRSLFSSVPSKPPMSLEPQNGTYAGPAPAFQPFFFTGAFPFNMQELVLKVRIQNPSLRENDFIEIELDRQELTYQELLRVCCCELGVNPDQVEKIRKLPNTLLRKDKDVARLQDFQELELVLMISENNFLFRNAASTLTERPCYNRRASKLTY [ANKRD40]: -0.0058
- MSMEDPFFVVKGEVQKAVNTAQGLFQRWTELLQDPSTATREEIDWTTNELRNNLRSIEWDLEDLDETISIVEANPRKFNLDATELSIRKAFITSTRQVVRDMKDQMSTSSVQALAERKNRQALLGDSGSQNWSTGTTDKYGRLDRELQRANSHFIEEQQAQQQLIVEQQDEQLELVSGSIGVLKNMSQRIGGELEEQAVMLEDFSHELESTQSRLDNVMKKLAKVSHMTSDRRQWCAIAILFAVLLVVLILFLVL [STX6]: -0.167

Let us examine a further case.
Q: Name the recorded solubility in G1/S (log2) for MAAANPWDPASAPNGAGLVLGHFIASGMVNQEMLNMSKKTVSCFVNFTRLQQITNIQAEIYQKNLEIELLKLEKDTADVVHPFFLAQKCHTLQSMNNHLEAVLKEKRSLRQRLLKPMCQENLPIEAVYHRYMVHLLELAVTFIERLETHLETIRNIPHLAANLKKMNQALAKMDILVTETEELAENILKWRKQQNEVSSCIPKILAEESYLYKHDIIMPPLPFTSKVHVQTINAK [HAUS2] .
Result: 0.261

---

For each entry below, report its solubility in G1/S (log2) value.
- Test system: HeLa Kyoto
- assay protocol: solubility in G1/S (NP-40 vs SDS abundance) (log2 ratio); higher = more soluble
- test settings: cell cycle stage: G1/S
One number for each entry.

• MTDYGEEQRNELEALESIYPDSFTVLSENPPSFTITVTSEAGENDETVQTTLKFTYSEKYPDEAPLYEIFSQENLEDNDVSDILKLLALQAEENLGMVMIFTLVTAVQEKLNEIVDQIKTRREEEKKQKEKEAEEAEKQLFHGTPVTIENFLNWKAKFDAELLEIKKKRMKEEEQAGKNKLSGKQLFETDHNLDTSDIQFLEDAGNNVEVDESLFQEMDDLELEDDEDDPDYNPADPESDSAD [RWDD1] = 0.348
• METPPVNTIGEKDTSQPQQEWEKNLRENLDSVIQIRQQPRDPPTETLELEVSPDPASQILEHTQGAEKLVAELEGDSHKSHGSTSQMPEALQASDLWYCPDGSFVKKIVIRGHGLDKPKLGSCCRVLALGFPFGSGPPEGWTELTMGVGPWREETWGELIEKCLESMCQGEEAELQLPGHSGPPVRLTLASFTQGRDSWELETSEKEALAREERARGTELFRAGNPEGAARCYGRALRLLLTLPPPGPPERTVLHANLAACQLLLGQPQLAAQSCDRVLEREPGHLKALYRRGVAQAALGNLEKATADLKKVLAIDPKNRAAQEELGKVVIQGKNQDAGLAQGLRKMFG [FKBPL] = 0.618

Now let's try a different one.
Q: Find the recorded solubility in G1/S (log2) belonging to MDDREDLVYQAKLAEQAERYDEMVESMKKVAGMDVELTVEERNLLSVAYKNVIGARRASWRIISSIEQKEENKGGEDKLKMIREYRQMVETELKLICCDILDVLDKHLIPAANTGESKVFYYKMKGDYHRYLAEFATGNDRKEAAENSLVAYKAASDIAMTELPPTHPIRLGLALNFSVFYYEILNSPDRACRLAKAAFDDAIAELDTLSEESYKDSTLIMQLLRDNLTLWTSDMQGDGEEQNKEALQDVEDENQ [YWHAE] and report it.
Result: 0.336

---

- Test system: HeLa Kyoto
- assay protocol: solubility change mitosis vs G1/S (difference of NP-40 vs SDS log2 ratios) (log2 ratio difference); higher = more soluble in mitosis
Task for the reader: assign each of the following sequences its reported solubility change mitosis (log2).
Give bare numbers.

- MCTKMEQPFYHDDSYTATGYGRAPGGLSLHDYKLLKPSLAVNLADPYRSLKAPGARGPGPEGGGGGSYFSGQGSDTGASLKLASSELERLIVPNSNGVITTTPTPPGQYFYPRGGGSGGGAGGAGGGVTEEQEGFADGFVKALDDLHKMNHVTPPNVSLGATGGPPAGPGGVYAGPEPPPVYTNLSSYSPASASSGGAGAAVGTGSSYPTTTISYLPHAPPFAGGHPAQLGLGRGASTFKEEPQTVPEARSRDATPPVSPINMEDQERIKVERKRLRNRLAATKCRKRKLERIARLEDKVKTLKAENAGLSSTAGLLREQVAQLKQKVMTHVSNGCQLLLGVKGHAF [JUNB]: 0.346

Q: State its solubility change mitosis (log2) on HeLa Kyoto: MLAVHFDKPGGPENLYVKEVAKPSPGEGEVLLKVAASALNRADLMQRQGQYDPPPGASNILGLEASGHVAELGPGCQGHWKIGDTAMALLPGGGQAQYVTVPEGLLMPIPEGLTLTQAAAIPEAWLTAFQLLHLVGNVQAGDYVLIHAGLSGVGTAAIQLTRMAGAIPLVTAGSQKKLQMAEKLGAAAGFNYKKEDFSEATLKFTKGAGVNLILDCIGGSYWEKNVNCLALDGRWVLYGLMGGGDINGPLFSKLLFKRGSLITSLLRSRDNKYKQMLVNAFTEQILPHFSTEGPQRLLPVLDRIYPVTEIQEAHKYMEANKNIGKIVLELPQ [TP53I3]
Result: -0.199

---

- Tested on: HeLa Kyoto
- assay protocol: solubility in G1/S (NP-40 vs SDS abundance) (log2 ratio); higher = more soluble
- test settings: cell cycle stage: G1/S
reported endpoint: solubility in G1/S (log2)
Numbers only.

- MSAKPEVSLVREASRQIVAGGSAGLVEICLMHPLDVVKTRFQIQRCATDPNSYKSLVDSFRMIFQMEGLFGFYKGILPPILAETPKRAVKFFTFEQYKKLLGYVSLSPALTFAIAGLGSGLTEAIVVNPFEVVKVGLQANRNTFAEQPSTVGYARQIIKKEGWGLQGLNKGLTATLGRHGVFNMVYFGFYYNVKNMIPVNKDPILEFWRKFGIGLLSGTIASVINIPFDVAKSRIQGPQPVPGEIKYRTCFKTMATVYQEEGILALYKGLLPKIMRLGPGGAVMLLVYEYTYSWLQENW [SLC25A21]: -0.251

Moving on to another sequence below.
Q: Bench note: what solubility in G1/S (log2) did MAAPALGLVCGRCPELGLVLLLLLLSLLCGAAGSQEAGTGAGAGSLAGSCGCGTPQRPGAHGSSAAAHRYSREANAPGPVPGERQLAHSKMVPIPAGVFTMGTDDPQIKQDGEAPARRVTIDAFYMDAYEVSNTEFEKFVNSTGYLTEAEKFGDSFVFEGMLSEQVKTNIQQAVAAAPWWLPVKGANWRHPEGPDSTILHRPDHPVLHVSWNDAVAYCTWAGKRLPTEAEWEYSCRGGLHNRLFPWGNKLQPKGQHYANIWQGEFPVTNTGEDGFQGTAPVDAFPPNGYGLYNIVGNAWEWTSDWWTVHHSVEETLNPKGPPSGKDRVKKGGSYMCHRSYCYRYRCAARSQNTPDSSASNLGFRCAADRLPTMD [SUMF1] show?
Result: 0.277

---

- System: HeLa Kyoto
- assay protocol: solubility change mitosis vs G1/S (difference of NP-40 vs SDS log2 ratios) (log2 ratio difference); higher = more soluble in mitosis
reported endpoint: solubility change mitosis (log2)
Numbers only.

// known answers, use as guide
* MSCTIEKALADAKALVERLRDHDDAAESLIEQTTALNKRVEAMKQYQEEIQELNEVARHRPRSTLVMGIQQENRQIRELQQENKELRTSLEEHQSALELIMSKYREQMFRLLMASKKDDPGIIMKLKEQHSKIDMVHRNKSEGFFLDASRHILEAPQHGLERRHLEANQNELQAHVDQITEMAAVMRKAIEIDEQQGCKEQERIFQLEQENKGLREILQITRESFLNLRKDDASESTSLSALVTNSDLSLRKS [FGFR1OP2] | 0.0581
* MEEGGNLGGLIKMVHLLVLSGAWGMQMWVTFVSGFLLFRSLPRHTFGLVQSKLFPFYFHISMGCAFINLCILASQHAWAQLTFWEASQLYLLFLSLTLATVNARWLEPRTTAAMWALQTVEKERGLGGEVPGSHQGPDPYRQLREKDPKYSALRQNFFRYHGLSSLCNLGCVLSNGLCLAGLALEIRSL [TMEM205] | -0.294

Now consider the entry below.
Q: What does the data say about its solubility change mitosis (log2)? Entry: MPVKGGTKCIKYLLFGFNFIFWLAGIAVLAIGLWLRFDSQTKSIFEQETNNNNSSFYTGVYILIGAGALMMLVGFLGCCGAVQESQCMLGLFFGFLLVIFAIEIAAAIWGYSHKDEVIKEVQEFYKDTYNKLKTKDEPQRETLKAIHYALNCCGLAGGVEQFISDICPKKDVLETFTVKSCPDAIKEVFDNKFHIIGAVGIGIAVVMIFGMIFSMILCCAIRRNREMV [CD9]
Result: -0.149
